Data provenance is ChEMBL document CHEMBL1136729.

Test system: KBALB-STK
Assay: In vitro cell cytotoxicity against KBALB-STK cell lines expressed in HSV-1 TK
Format: functional
Settings: Mus musculus
Reported CC50 values for a set of compounds
Note: a bare number is incomplete; add the unit.

// known answers, use as guide
Cc1cn([C@H]2C[C@H](O)[C@@H](CO[N+](=O)[O-])O2)c(=O)[nH]c1=O 300 µM
O=c1[nH]c(=O)n([C@H]2C[C@H](O)[C@@H](CO[N+](=O)[O-])O2)cc1I 250 µM
Cc1cn([C@H]2C[C@H](O)[C@@H](CO)O2)c(=O)[nH]c1=O 100 µM
Nc1nc(=O)n([C@H]2C[C@H](O[N+](=O)[O-])[C@@H](CO)O2)cc1I 250 µM

**Q:** Sample `Cc1cn([C@H]2C[C@H](O[N+](=O)[O-])[C@@H](CO)O2)c(=O)[nH]c1=O` — what was its CC50?
**A:** 7000 µM
